Just for reference, ChEMBL document CHEMBL6134877 is where these values come from.

Experiment: Half life in plasma of male C57BL6 mouse at 3 mg/kg, po
Type: ADME, organism-based
Measured half-life by item
Write the value in h as a bare number.

- Input smiles: "CN(C)CCc1c[nH]c2cccc(O)c12"
  Measurement type: "half-life"
  Observed: 1.7

We now examine a further molecule.
## Task Endpoint output: half-life of CCCOc1cc(CCN)c(OC)cc1Br . Value?
## Result 1.44

---

Test: AUClast in plasma of male C57BL6 mouse at 3 mg/kg, po
Type: ADME, organism-based
Measurement type: AUC(0-t) (ng·h/mL)
Write the value in ng·h/mL as a bare number.

- Compound: "CN(C)CCc1c[nH]c2cccc(O)c12 [PSILOCIN]"
  Value unit: "ng·h/mL"
  AUC(0-t): 1060

We now examine a further compound.
## Task Endpoint output: AUC(0-t) of CCCOc1cc(CCN)c(OC)cc1Br . Value?
## Result 284

---

Measured Cmax by item
Assay: Cmax in plasma of male C57BL6 mouse at 3 mg/kg, po
Type: ADME, organism-based
Write the value in ng/mL as a bare number.

- Input smiles: "CN(C)CCc1c[nH]c2cccc(O)c12"
  Observed: 878

We now examine a further compound.
## Task Endpoint output: Cmax of CCCOc1cc(CCN)c(OC)cc1Br . Value?
## Result 130
